Data credit: paper PMC11003494

pKi: −log10 of the molar value.
This document collects pKi values reported for hCA XII (Homo sapiens).

{"columns": ["Compound", "Target Or System", "pKi"],
 "data": [
  ["COC(=O)Cc1c(C)c2ccc(OCC(=O)c3ccccc3)c(C)c2oc1=O [EMAC10163i]", "hCA XII (Homo sapiens)", 5.28],
  ["COC(=O)Cc1c(C)c2ccc(OCC(=O)c3ccc([N+](=O)[O-])cc3)c(C)c2oc1=O [EMAC10163e]", "hCA XII (Homo sapiens)", 5.11],
  ["COC(=O)Cc1c(C)c2ccc(OCC(=O)c3ccc(F)cc3)c(C)c2oc1=O [EMAC10163d]", "hCA XII (Homo sapiens)", 5.22],
  ["COC(=O)Cc1c(C)c2ccc(OCC(=O)c3ccc(Cl)cc3)c(C)c2oc1=O [EMAC10163j]", "hCA XII (Homo sapiens)", 5.62],
  ["Cc1c(CC(=O)O)c(=O)oc2c(C)c3occ(-c4ccc(F)cc4)c3cc12 [EMAC10164d]", "hCA XII (Homo sapiens)", 6.10],
  ["Cc1c(CC(=O)O)c(=O)oc2c(C)c3occ(-c4ccc(F)cc4F)c3cc12 [EMAC10164h]", "hCA XII (Homo sapiens)", 5.20],
  ["COC(=O)Cc1c(C)c2ccc(OCC(=O)c3ccc(F)cc3F)c(C)c2oc1=O [EMAC10163h]", "hCA XII (Homo sapiens)", 5.25],
  ["COC(=O)Cc1c(C)c2ccc(OCC(=O)c3ccc(C)cc3)c(C)c2oc1=O [EMAC10163a]", "hCA XII (Homo sapiens)", 5.60]
]}
